- System: model rats of middle cerebral artery thrombosis (MCAT)
- assay_text: Effects on neural symptoms of MCAT rats (behavioral score)
- Format: in vivo, SD rats
- measurement_setup: 100 mg/kg by gavage, 6 hours after operation, full mark 4

compound	Scores 6 hours
CCC/C=C1/OC(=O)c2ccccc21 [3-n-butenylphthalide]	3.36
CCCCC(=O)c1ccccc1C(=O)[O-].[Na+] [Sodium 2-(α-n-pentanonyl)benzoate, sodium 2-(α-n-pentanonyl)benzoate]	3.10
CCCCC(O)c1ccccc1C(=O)O (stereo not drawn) [Calcium 2-(α-hydroxypentyl)benzoate]	3.55
CCCCC(=O)c1ccccc1C(=O)[O-].[K+] [Potassium 2-(α-n-pentanonyl)benzoate, potassium 2-(α-n-pentanonyl)benzoate]	3.36
